Origin of measurements: paper PMC9611727

test: Kinetic aqueous solubility in PBS pH 7.4; format: physicochemical; conditions: phosphate buffered saline (PBS), 25 °C, aqueous buffer, kinetic from dmso stock
Use 40 µM as the dividing line for solubility kinetic at 1 h, with the line itself on the condition met side and lower values as condition not met.

[[record]]
chemical_smiles = "Cc1nc(N)c2c(-c3cc(F)c(NC(=O)[C@H](O)c4cccc(F)c4)cc3C)cn(C)c2n1"
cat = "condition met"

[[record]]
chemical_smiles = "Cc1nc(N)c2c(-c3ccc(NC(=O)[C@H](O)c4cccc(Cl)c4)cc3C)cn(C)c2n1"
cat = "condition not met"

[[record]]
chemical_smiles = "Cc1nc(N)c2c(-c3ccc(NC(=O)[C@H](O)c4cccc(Cl)c4)cc3F)cn(C)c2n1"
cat = "condition not met"

[[record]]
chemical_smiles = "Cc1nc(N)c2c(-c3ccc(NC(=O)[C@H](O)c4cccc(C(F)(F)F)c4)cc3C)cn(C)c2n1"
cat = "condition not met"

[[record]]
chemical_smiles = "Cc1cc(F)cc([C@@H](O)C(=O)Nc2ccc(-c3cn(C)c4nc(C)nc(N)c34)c(C)c2)c1"
cat = "condition not met"

[[record]]
chemical_smiles = "Cc1nc(N)c2c(-c3ccc(NC(=O)[C@H](O)c4cccc(F)c4)c(F)c3C)cn(C)c2n1"
cat = "condition met"

[[record]]
chemical_smiles = "Cc1nc(N)c2c(-c3ccc(NC(=O)[C@H](O)c4cccc(F)c4)cc3C)cn(C)c2n1"
cat = "condition met"


----------
assay: Metabolic clearance in hepatocytes, mouse; type: in vitro ADME; conditions: male, ICR/CD-1, cryopreserved mouse hepatocytes, read-out: Hepatocyte Clearance (t1/2 min) Mouse
# maps each entry to its half-life at 1 µM
MEASUREMENT NAME: half-life at 1 µM (h)

[[record]]
chemical_smiles = "Cc1nc(N)c2c(-c3cc(F)c(NC(=O)[C@H](O)c4cccc(F)c4)cc3C)cn(C)c2n1"
unit_string = "h"
reported = 2.78

[[record]]
chemical_smiles = "Cc1cc(F)cc([C@@H](O)C(=O)Nc2ccc(-c3cn(C)c4nc(C)nc(N)c34)c(C)c2)c1"
unit_string = "h"
reported = 0.4

[[record]]
chemical_smiles = "Cc1nc(N)c2c(-c3ccc(NC(=O)[C@H](O)c4cccc(F)c4)c(F)c3C)cn(C)c2n1"
unit_string = "h"
reported = 1.07


----------
Experiment: Caco-2 permeability / efflux
Format: in vitro ADME
Conditions: human, Caco-2, pH 7.4; Papp (B-to-A) / Papp (A-to-B)
Experimental: P-gp Substrate Assessment using Caco-2 Monolayers Caco-2 cells (clone C2BBe1) were obtained from American Type Culture Collection (Manassas, VA). […] The flux of lucifer yellow was also measured post-experimentally for each monolayer to ensure no damage was inflicted to the cell monolayers during the flux period. […] The apparent permeability (Papp) and percent recovery were calculated as follows: […] CA is the average of the nominal dosing concentration and the measured 120 minute donor concentration in μM; […]
Listed molecules paired with reported efflux ratio at 120 min, 5 µM
MEASUREMENT NAME: efflux ratio at 120 min, 5 µM

[[record]]
chemical_smiles = "Cc1nc(N)c2c(-c3ccc(NC(=O)[C@H](O)c4cc(F)cc(F)c4)cc3C)cn(C)c2n1"
measurement_name = "efflux ratio at 120 min, 5 µM"
reported = 1.9

[[record]]
chemical_smiles = "Cc1nc(N)c2c(-c3ccc(NC(=O)[C@H](O)c4cccc(F)c4)c(F)c3C)cn(C)c2n1"
measurement_name = "efflux ratio at 120 min, 5 µM"
reported = 1.6

[[record]]
chemical_smiles = "Cc1nc(N)c2c(-c3ccc(NC(=O)[C@H](O)c4cccc(Cl)c4)cc3F)cn(C)c2n1"
measurement_name = "efflux ratio at 120 min, 5 µM"
reported = 1.6


----------
biological target: UniProtKB Q9BQI3
Sequence (Q9BQI3 whole entry): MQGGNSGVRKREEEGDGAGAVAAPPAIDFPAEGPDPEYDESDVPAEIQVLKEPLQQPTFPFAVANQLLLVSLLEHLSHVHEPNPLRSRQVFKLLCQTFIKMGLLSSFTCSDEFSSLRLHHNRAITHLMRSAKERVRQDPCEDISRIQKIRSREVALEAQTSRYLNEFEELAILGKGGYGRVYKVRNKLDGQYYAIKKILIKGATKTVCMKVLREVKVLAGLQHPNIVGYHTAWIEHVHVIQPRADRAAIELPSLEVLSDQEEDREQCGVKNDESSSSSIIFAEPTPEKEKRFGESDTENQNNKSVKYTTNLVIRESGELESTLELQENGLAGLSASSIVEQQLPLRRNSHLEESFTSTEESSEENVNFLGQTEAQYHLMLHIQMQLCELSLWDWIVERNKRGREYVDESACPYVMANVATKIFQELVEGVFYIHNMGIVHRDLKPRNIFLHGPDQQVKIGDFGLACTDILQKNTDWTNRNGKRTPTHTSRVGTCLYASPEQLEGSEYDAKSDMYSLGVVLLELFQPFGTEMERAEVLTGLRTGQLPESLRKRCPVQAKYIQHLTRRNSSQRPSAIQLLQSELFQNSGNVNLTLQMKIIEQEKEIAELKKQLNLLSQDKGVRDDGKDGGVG
pIC50: −log10 of the molar value.
MEASUREMENT NAME: pIC50

[[record]]
compound = "Cc1nc(N)c2c(-c3ccc(NC(=O)[C@H](O)c4cccc(C(F)(F)F)c4)cc3C)cn(C)c2n1 [Compound 26]"
target_or_test_system = "UniProtKB Q9BQI3"
reported = "< 5.00"


----------
Reported log10 half-life at 1 µM values follow for various molecules
assay: Metabolic clearance in hepatocytes, mouse; format: in vitro ADME; settings: male, ICR/CD-1, cryopreserved mouse hepatocytes, read-out: Hepatocyte Clearance (t1/2 min) Mouse
MEASUREMENT NAME: log10 half-life at 1 µM (log10 of the value in h)

[[record]]
chemical_smiles = "Cc1nc(N)c2c(-c3ccc(NC(=O)[C@H](O)c4cccc(F)c4)cc3C)cn(C)c2n1"
reported = -0.29

[[record]]
chemical_smiles = "Cc1nc(N)c2c(-c3ccc(NC(=O)[C@H](O)c4cccc(Cl)c4)cc3F)cn(C)c2n1"
reported = -0.05

[[record]]
chemical_smiles = "Cc1nc(N)c2c(-c3ccc(NC(=O)[C@H](O)c4cc(F)cc(F)c4)cc3C)cn(C)c2n1"
reported = 1.13

[[record]]
chemical_smiles = "Cc1nc(N)c2c(-c3ccc(NC(=O)[C@H](O)c4cccc(Cl)c4)cc3C)cn(C)c2n1"
reported = 0.01

[[record]]
chemical_smiles = "Cc1nc(N)c2c(-c3ccc(NC(=O)[C@H](O)c4cccc(F)c4)c(F)c3F)cn(C)c2n1"
reported = -0.12

[[record]]
chemical_smiles = "Cc1nc(N)c2c(-c3ccc(NC(=O)[C@H](O)c4cc(F)cc(C(F)(F)F)c4)cc3C)cn(C)c2n1"
reported = 0.73

[[record]]
chemical_smiles = "Cc1nc(N)c2c(-c3ccc(NC(=O)[C@H](O)c4cccc(C(F)(F)F)c4)cc3C)cn(C)c2n1"
reported = 0.29


----------
tested on: MOLM-16 (FLT3wt); experiment: Cell viability assay, MOLM-16; format: cell-based; conditions: Homo sapiens, MOLM16
MEASUREMENT NAME: IC50

[[record]]
molecule = "Cc1nc(N)c2c(-c3ccc(NC(=O)[C@H](O)c4cccc(C(F)(F)F)c4)cc3C)cn(C)c2n1 [Compound 26]"
measurement_name = "IC50"
reported = "> 10 µM"


----------
Recorded Papp A→B at 120 min, 5 µM values for a group of molecules are listed next.
assay: Caco-2 permeability / efflux; type: in vitro ADME; details: human, Caco-2, pH 7.4; 5 μM, 120 minutes
MEASUREMENT NAME: Papp A→B at 120 min, 5 µM (×10⁻⁶ cm/s)

[[record]]
molecule = "Cc1nc(N)c2c(-c3ccc(NC(=O)[C@H](O)c4cccc(F)c4)c(F)c3F)cn(C)c2n1 [Compound 70]"
unit_string = "×10⁻⁶ cm/s"
reported = 29

[[record]]
molecule = "Cc1nc(N)c2c(-c3ccc(NC(=O)[C@H](O)c4cccc(Cl)c4)cc3C)cn(C)c2n1 [Compound 28]"
unit_string = "×10⁻⁶ cm/s"
reported = 23

[[record]]
molecule = "Cc1cc(F)cc([C@@H](O)C(=O)Nc2ccc(-c3cn(C)c4nc(C)nc(N)c34)c(C)c2)c1 [Compound 41]"
unit_string = "×10⁻⁶ cm/s"
reported = 20


----------
molecular target: PERK (Homo sapiens); assay: PERK biochemical LanthaScreen TR-FRET assay (GFP-eIF2a phosphorylation); settings: cell-free TR-FRET, GFP-eIF2a substrate; read-out: PERK IC50
Sequence (Q9NZJ5 30-1116): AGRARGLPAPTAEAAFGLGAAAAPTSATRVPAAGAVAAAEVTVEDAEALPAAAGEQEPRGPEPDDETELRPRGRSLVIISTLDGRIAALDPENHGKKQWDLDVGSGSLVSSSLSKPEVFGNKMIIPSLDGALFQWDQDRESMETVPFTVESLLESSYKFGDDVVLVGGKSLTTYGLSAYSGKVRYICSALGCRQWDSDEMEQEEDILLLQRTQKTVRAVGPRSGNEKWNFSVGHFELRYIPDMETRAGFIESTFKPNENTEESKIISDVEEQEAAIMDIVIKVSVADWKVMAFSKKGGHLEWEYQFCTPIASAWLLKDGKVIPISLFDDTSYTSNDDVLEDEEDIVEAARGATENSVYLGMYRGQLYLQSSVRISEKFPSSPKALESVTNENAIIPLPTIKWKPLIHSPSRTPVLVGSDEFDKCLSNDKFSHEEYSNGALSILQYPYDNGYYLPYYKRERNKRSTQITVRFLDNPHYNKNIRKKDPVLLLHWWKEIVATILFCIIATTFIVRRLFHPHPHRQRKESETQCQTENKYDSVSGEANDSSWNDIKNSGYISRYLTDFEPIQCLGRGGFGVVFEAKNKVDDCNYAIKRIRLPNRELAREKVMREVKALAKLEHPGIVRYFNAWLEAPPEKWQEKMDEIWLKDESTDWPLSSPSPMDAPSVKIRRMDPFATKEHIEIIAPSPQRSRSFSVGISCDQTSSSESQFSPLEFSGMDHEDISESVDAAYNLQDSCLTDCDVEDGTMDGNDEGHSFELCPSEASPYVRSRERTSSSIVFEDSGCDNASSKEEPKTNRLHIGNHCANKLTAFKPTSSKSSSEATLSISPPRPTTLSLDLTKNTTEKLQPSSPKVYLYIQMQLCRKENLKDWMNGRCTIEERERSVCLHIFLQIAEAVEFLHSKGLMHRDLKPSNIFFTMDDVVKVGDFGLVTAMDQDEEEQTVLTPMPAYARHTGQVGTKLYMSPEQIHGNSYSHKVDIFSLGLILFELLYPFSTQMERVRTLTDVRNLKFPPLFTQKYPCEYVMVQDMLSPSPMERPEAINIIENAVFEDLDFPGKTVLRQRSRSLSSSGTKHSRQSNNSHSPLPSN
pIC50: −log10 of the molar value.
MEASUREMENT NAME: pIC50

[[record]]
compound = "Cc1cc(NC(=O)[C@H](O)c2cccc(F)c2)ccc1-c1cn(C)c2ncnc(N)c12"
measurement_name = "pIC50"
value_comparator = "="
reported = 8.66

[[record]]
compound = "Cc1nc(N)c2c(-c3ccc(NC(=O)[C@H](O)c4ccccc4F)cc3C)cn(C)c2n1"
measurement_name = "pIC50"
value_comparator = "="
reported = 6.99

[[record]]
compound = "Cc1cc(NC(=O)Cc2ccccc2)ccc1-c1cn(C)c2ncnc(N)c12"
measurement_name = "pIC50"
value_comparator = "="
reported = 8.28

[[record]]
compound = "Cc1nc(N)c2c(-c3ccc(NC(=O)[C@H](O)c4cccc(F)c4)cc3F)cn(C)c2n1"
measurement_name = "pIC50"
value_comparator = "="
reported = 8.66

[[record]]
compound = "Cc1cc(F)cc([C@@H](O)C(=O)Nc2ccc(-c3cn(C)c4nc(C)nc(N)c34)c(F)c2)c1"
measurement_name = "pIC50"
value_comparator = "="
reported = 8.96

[[record]]
compound = "Cc1nc(N)c2c(-c3ccc(NC(=O)[C@H](O)c4cccc(Br)c4)cc3C)cn(C)c2n1"
measurement_name = "pIC50"
value_comparator = "="
reported = 8.52

[[record]]
compound = "Cc1nc(N)c2c(-c3ccc(NC(=O)[C@H](O)c4cccc(F)c4)c(F)c3)cn(C)c2n1"
measurement_name = "pIC50"
value_comparator = "="
reported = 9.00

[[record]]
compound = "Cc1nc(N)c2c(-c3ccc(NC(=O)[C@H](O)c4cccc(C(F)(F)F)c4)nc3C)cn(C)c2n1"
measurement_name = "pIC50"
value_comparator = "="
reported = 7.89

[[record]]
compound = "CCc1cc(NC(=O)[C@H](O)c2cccc(F)c2)ccc1-c1cn(C)c2nc(C)nc(N)c12"
measurement_name = "pIC50"
value_comparator = "="
reported = 8.40

[[record]]
compound = "Cc1nc(N)c2c(-c3ccc(NC(=O)[C@H](O)c4cccc(Cl)c4)cc3F)cn(C)c2n1"
measurement_name = "pIC50"
value_comparator = "="
reported = 9.00

[[record]]
compound = "Cc1nc(N)c2c(-c3cc(F)c(NC(=O)[C@H](O)c4cccc(F)c4)cc3C)cn(C)c2n1"
measurement_name = "pIC50"
value_comparator = "="
reported = 7.96

[[record]]
compound = "Cc1nc(N)c2c(-c3ccc(NC(=O)[C@H](O)c4cccc(C(F)(F)F)c4)cc3)cn(C)c2n1"
measurement_name = "pIC50"
value_comparator = "="
reported = 8.55

[[record]]
compound = "Cc1nc(N)c2c(-c3ccc(NC(=O)[C@H](O)c4cccc(S(C)(=O)=O)c4)cc3C)cn(C)c2n1"
measurement_name = "pIC50"
value_comparator = "<"
reported = 6.00

[[record]]
compound = "Cc1nc(N)c2c(-c3c(C)cc(NC(=O)C(O)c4cccc(F)c4)cc3C)cn(C)c2n1 (stereo not shown)"
measurement_name = "pIC50"
value_comparator = "="
reported = 7.89

[[record]]
compound = "Cc1cc(NC(=O)Oc2ccccc2)ccc1-c1cn(C)c2ncnc(N)c12"
measurement_name = "pIC50"
value_comparator = "="
reported = 5.40

[[record]]
compound = "Cc1cc(NC(=O)N(C)c2ccccc2)ccc1-c1cn(C)c2ncnc(N)c12"
measurement_name = "pIC50"
value_comparator = "="
reported = 6.97

[[record]]
compound = "Cc1nc(N)c2c(-c3ccc(NC(=O)C(O)c4ccccc4C(F)(F)F)cc3C)cn(C)c2n1 (stereo not shown)"
measurement_name = "pIC50"
value_comparator = "="
reported = 6.46

[[record]]
compound = "Cc1cccc([C@@H](O)C(=O)Nc2ccc(-c3cn(C)c4nc(C)nc(N)c34)c(C)c2)c1"
measurement_name = "pIC50"
value_comparator = "="
reported = 7.85

[[record]]
compound = "CO[C@@H](C(=O)Nc1ccc(-c2cn(C)c3ncnc(N)c23)c(C)c1)c1ccccc1"
measurement_name = "pIC50"
value_comparator = "="
reported = 7.85

[[record]]
compound = "Cc1nc(N)c2c(-c3cnc(NC(=O)[C@H](O)c4cccc(F)c4)cc3C)cn(C)c2n1"
measurement_name = "pIC50"
value_comparator = "="
reported = 8.08

[[record]]
compound = "Cc1nc(N)c2c(-c3cnc(NC(=O)[C@H](O)c4cccc(C(F)(F)F)c4)cc3C)cn(C)c2n1"
measurement_name = "pIC50"
value_comparator = "="
reported = 8.17

[[record]]
compound = "Cc1nc(N)c2c(-c3cc(F)c(NC(=O)C(O)c4cccc(F)c4)cc3F)cn(C)c2n1 (stereo not shown)"
measurement_name = "pIC50"
value_comparator = "="
reported = 9.00

[[record]]
compound = "Cc1cc(NC(=O)CCc2ccccc2)ccc1-c1cn(C)c2ncnc(N)c12"
measurement_name = "pIC50"
value_comparator = "="
reported = 6.90

[[record]]
compound = "Cc1cc(F)cc([C@@H](O)C(=O)Nc2ccc(-c3cn(C)c4nc(C)nc(N)c34)c(C)c2)c1"
measurement_name = "pIC50"
value_comparator = "="
reported = 8.85

[[record]]
compound = "Cc1nc(N)c2c(-c3ccc(NC(=O)[C@H](O)c4cc(F)cc(C(F)(F)F)c4)cc3F)cn(C)c2n1"
measurement_name = "pIC50"
value_comparator = "="
reported = 8.57

[[record]]
compound = "Cc1cc(NC(=O)Nc2ccccc2)ccc1-c1cn(C)c2ncnc(N)c12"
measurement_name = "pIC50"
value_comparator = "="
reported = 7.68

[[record]]
compound = "Cc1cc(NC(=O)[C@@H](O)c2cccc(F)c2)ccc1-c1cn(C)c2ncnc(N)c12"
measurement_name = "pIC50"
value_comparator = "="
reported = 8.11

[[record]]
compound = "Cc1nc(N)c2c(-c3ccc(NC(=O)[C@H](O)c4cccc(C#N)c4)cc3C)cn(C)c2n1"
measurement_name = "pIC50"
value_comparator = "="
reported = 8.10

[[record]]
compound = "Cc1nc(N)c2c(-c3ccc(NC(=O)[C@H](O)c4cc(F)cc(Cl)c4)cc3C)cn(C)c2n1"
measurement_name = "pIC50"
value_comparator = "="
reported = 8.54

[[record]]
compound = "Cc1nc(N)c2c(-c3ccc(NC(=O)[C@H](O)c4cc(F)cc(C(F)(F)F)c4)cc3C)cn(C)c2n1"
measurement_name = "pIC50"
value_comparator = "="
reported = 8.59

[[record]]
compound = "Cc1nc(N)c2c(-c3ccc(NC(=O)[C@H](O)c4cccc(F)c4)cc3C(F)(F)F)cn(C)c2n1"
measurement_name = "pIC50"
value_comparator = "="
reported = 8.07

